Substrate: PET
Test: Proxy for plastic degradation [HPLC-UV]
Conditions: pH 9; 40 °C; 72 h
Measurement kind: Proxy for plastic degradation (µM)

INSERT INTO measurements (protein, result_number) VALUES
  ('unnamed (protein) MNFPRASRLMQAAVLGGLMAVSAAATAQTNPYARGPNPTAASLEASAGPFTVRSFTVSRPSGYGAGTVYYPTNAGGTVGAIAIVPGYTARQSSIKWWGPRLASHGFVVITIDTNSTLDQPSSRSSQQMAALRQVASLNGTSSSPIYGKVDTARMGVMGWSMGGGGSLISAANNPSLKAAAPQAPWFSSTNFSSVTVPTLIFACENDSIAPVNSSALPIYDSMSRNAKQFLEINGGSHSCANSGNSNQALIGKKGVAWMKRFMDNDTRYSTFACENPNSTRVSDFRTANCS', 14.4),
  ('unnamed (protein) MNFPRASRLMQAAVLGGLMAVSAAATAQTNPYARGPNPTAASLEASAGPFTVRSFTVSRPSGYGAGTVYYPTNAGGTVGAIAIVPGYTARQSSIKWWGPRLASHGFVVITIDTNSTLDQPDSRSSQQMAALRQVASLNGTSSSPIYGKVDTARMGVMGWSMGGGGSLISAANNPSLKAAAPQAPWHSSTNFSSVTVPTLIFACENDSIAPVNSSALPIYDSMSRNAKQFLEINGGSHSCANSGNSNQALIGKKGVAWMKRFMDNDTRYSTFACENPNSTRVSDFRTANCS', 38.4),
  ('unnamed (protein) MNFPRASRLMQAAVLGGLMAVSAAATAQTNPYARGPNPTAASLEASAGPFTVRSFTVSRPSGYGAGTVYYPTNAGGTVGAIAIVPGYTARQSSIKWWGPRLASHGFVVITIDTNSTLDQPSSRSSQQMAALRQVASLNGTSSSPIYGKVDTARMGVMGWSMGGGGSLISAANNPSLKAAAGQAPWDSSTNFSSVTVPTLIFACENDSIAPVNSSALPIYDSMSRNAKQFLEINGGSHSCANSGNSNQALIGKKGVAWMKRFMDNDTRYSTFACENPNSTRVSDFRTANCS', 1.7),
  ('unnamed (protein) MNFPRASRLMQAAVLGGLMAVSAAATAQTNPYARGPNPTAASLEASAGPFTVRSFTVSRPSGYGAGTVYYPTNAGGTVGAIAIVPGYTARQSSIKWWGPRLASHGFVVITIDTNSTLDQPESRSSQQMAALRQVASLNGTSSSPIYGKVDTARMGVMGWSMGGGGSLISAANNPSLKAAAAQAPWHSSTNFSSVTVPTLIFACENDSIAPVNSSALPIYDSMSRNAKQFLEINGGSHSCANSGNSNQALIGKKGVAWMKRFMDNDTRYSTFACENPNSTRVSDFRTANCS', 19.8),
  ('unnamed (protein) MNFPRASRLMQAAVLGGLMAVSAAATAQTNPYARGPNPTAASLEASAGPFTVRSFTVSRPSGYGAGTVYYPTNAGGTVGAIAIVPGYTARQSSIKWWGPRLASHGFVVITIDTNSTLDQPSSRSSQQMAALRQVASLNGTSSSPIYGKVDTARMGVMGWSMGGGGSLISAANNPSLKAAAAQAPWDSSTNFSSVTVPTLIFACENDSIAPVNSSALPIYDSMSRNAKQFLEINGGSHSCANSGNSNQALIGKKGVAWMKRFMDNDTRYSTFACENPNSTRVSDFRTANCS', 7.6);
